- EXPERIMENT NOTES: Density
- Assay type: physicochemical
- TEST PARAMETERS: Table 2
MEASURED METRIC: Density (50° C.) (g/mL)
Form entry: value (g/mL) — number only.

Density (50° C.) reported for this compound CCCCN(CCCC)C(=O)N(C)c1ccccc1 [N,N-dibutyl-N'-methyl-N'-phenylurea] : 0.9499

Density (50° C.) for CCN(CC)C(=O)N(C)c1ccccc1 [N,N-diethyl-N'-methyl-N'-phenylurea] is 0.9941

The recorded Density (50° C.) for CCCN(CCC)C(=O)N(C)c1ccccc1 [N,N-dipropyl-N'-methyl-N'-phenylurea] is 0.9690

Turning now to a further record.
Density (50° C.) in this record for CN(C)C(=O)N(C)c1ccccc1 [N,N,N'-trimethyl-N'-phenylurea] : 1.0392
